Biological target: Paired box protein Pax-6 (Homo sapiens)
Assay: ATG_Pax6_CIS: Attagene CIS-FACTORIAL HepG2 Assay for human Paired Box 6 (PAX6) (AID 2282956)
Conditions: HepG2 CIS-FACTORIAL PAX6 reporter transcription, RNA readout; actives raise or lower the signal
Calls of active or inactive are those of the source. Rule for the calls: active = hit-call score of the fitted dose curve at least 0.9, where 1 is the maximum; inactive = score below 0.9.
endpoint: AC50

In the examples that follow, each entry is paired with its recorded AC50.
compound: CCc1c(C(=O)NN2CCCCC2)nn(-c2ccc(Cl)cc2Cl)c1-c1ccc(Br)cc1
observed: 1.75 µM (active)
//
compound: CC(=O)OC/C=C(\C)CCC=C(C)C
observed: inactive
//
compound: COc1ccc(C)cc1N
observed: inactive
//
compound: O=C(N[C@@H](Cc1ccccc1)[C@@H](O)C(=O)N1C[C@@H](O)[C@@H](O)C1)c1cc2cc(Cl)ccc2[nH]1
observed: inactive
//
compound: c1cc(-c2ccncc2)ccn1
observed: inactive

Now, please, on to the next compound.
IN: Provide AC50, tested on Paired box protein Pax-6 (Homo sapiens), for CC(CO)OC(C)CO (stereo unspecified) (tested in a mixture with another compound) .
OUT: inactive
